# System: SF-295 CNS
# Method: NCI tumour cell line growth inhibition, 48 h
Here the recorded TGI is given for each entry.
Numbers only here, please. The scale is µM.

Smiles Entry | System Name | TGI [µM]
O=C(/C=C/c1ccc(Cl)cc1)c1ccc(Nc2nc(Nc3ccc(F)cc3)nc(Nc3ccc(F)cc3)n2)cc1 | SF-295 CNS | 58.5
O=C(COc1nc2ccccc2nc1-c1ccccc1)Nc1ccc(Cl)cc1 | SF-295 CNS | 40.1
COc1cc(OC)c2c(c1)C(=O)C(CC1(C)OCCCO1)=CC2=O | SF-295 CNS | 27.8

With those in mind, consider the next compound.
Using the record for CN(C)c1cc[n+](/C(NS(=O)(=O)c2cc(C(=O)Nc3ccc(Cl)cc3)c(Cl)cc2[S-])=C(\C#N)C(=O)c2ccccc2)cc1 , report its TGI.
68.7
